Source listed as ChEMBL document CHEMBL1135158.

# measurement-description: Bioavailability was determined after intravenous administration at a dose 5 mg/kg to male Sprague-Dawley rats
# Format: ADME, organism-based
# test-parameters: rat, in vivo
parameter: bioavailability (%)
Answer format: numeric, % implied, no suffix.

Q: Read off the recorded bioavailability for CN1CCN([C@H]2CC[C@@H](n3cc(-c4ccc(Oc5ccccc5)cc4)c4c(N)ncnc43)CC2)CC1
A: 54

---

# system-under-test: UniProt P41240
# measurement-description: Inhibition of human Csk tyrosine kinase
parameter: pIC50
pIC50 (log units): -log10 of the concentration in mol/L.

Q: Consider the compound CN1CCN([C@H]2CC[C@H](n3cc(-c4ccc(Oc5ccccc5)cc4)c4c(N)ncnc43)CC2)CC1 . State its measured pIC50.
A: 5.37

---

# system-under-test: Proto-oncogene tyrosine-protein kinase Src (Homo sapiens)
# Sequence (P12931 2-536 limits assumed): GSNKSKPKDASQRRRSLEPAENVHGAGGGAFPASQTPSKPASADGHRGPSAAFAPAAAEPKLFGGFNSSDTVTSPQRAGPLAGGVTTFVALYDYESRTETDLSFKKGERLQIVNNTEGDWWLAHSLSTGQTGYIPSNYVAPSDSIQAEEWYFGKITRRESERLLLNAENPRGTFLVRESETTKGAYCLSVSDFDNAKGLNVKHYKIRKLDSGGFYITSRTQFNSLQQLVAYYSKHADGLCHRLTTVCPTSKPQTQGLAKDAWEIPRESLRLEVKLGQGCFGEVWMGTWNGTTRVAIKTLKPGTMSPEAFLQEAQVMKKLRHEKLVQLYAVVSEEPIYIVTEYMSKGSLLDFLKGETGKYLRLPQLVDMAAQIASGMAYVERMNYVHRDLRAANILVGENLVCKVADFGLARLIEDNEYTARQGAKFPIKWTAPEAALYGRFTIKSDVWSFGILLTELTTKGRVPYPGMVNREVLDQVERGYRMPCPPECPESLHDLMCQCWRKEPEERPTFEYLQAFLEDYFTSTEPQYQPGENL
parameter: IC50 (nM)
Only the number, expressed in nM, is required.

Q: Note IC50 for the compound shown: CN1CCN([C@H]2CC[C@H](n3cc(-c4ccc(Oc5ccccc5)cc4)c4c(N)ncnc43)CC2)CC1
A: 1190

---

# system-under-test: Tyrosine-protein kinase CSK (Homo sapiens, UniProt P41240)
# Sequence (P41240 whole entry): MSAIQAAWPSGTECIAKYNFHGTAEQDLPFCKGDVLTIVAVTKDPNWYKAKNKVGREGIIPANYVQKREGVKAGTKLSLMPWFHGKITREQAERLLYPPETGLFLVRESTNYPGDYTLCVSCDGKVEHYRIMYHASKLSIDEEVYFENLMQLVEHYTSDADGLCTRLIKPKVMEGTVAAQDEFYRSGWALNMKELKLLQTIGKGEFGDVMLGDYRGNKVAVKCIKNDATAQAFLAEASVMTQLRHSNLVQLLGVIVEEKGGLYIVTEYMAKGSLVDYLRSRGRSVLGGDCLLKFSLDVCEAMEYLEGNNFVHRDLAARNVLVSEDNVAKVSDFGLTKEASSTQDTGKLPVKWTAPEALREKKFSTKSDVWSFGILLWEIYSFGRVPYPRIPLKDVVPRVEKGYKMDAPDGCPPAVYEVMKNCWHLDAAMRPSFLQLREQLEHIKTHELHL
# measurement-description: Inhibition of human Tyrosine-protein kinase CSK
parameter: IC50 (nM)
All answers are understood in nM, so give the number only.

Q: Please supply the value of reported IC50 for the item CN1CCN([C@H]2CC[C@@H](n3cc(-c4ccc(Oc5ccccc5)cc4)c4c(N)ncnc43)CC2)CC1
A: 41

---

# measurement-description: Compound was evaluated for the pharmacokinetic parameter, area under curve
# Type: ADME, organism-based
# test-parameters: mouse, in vivo
parameter: AUC (ng·h/mL)
Response body: numeric value in ng·h/mL, unit text excluded.

Q: For the compound Nc1ncnc2c1c(-c1ccc(Oc3ccccc3)cc1)cn2C1CCCC1 , report AUC.
A: 34.3

---

parameter: IC50 (nM)
Form entry: value (nM) — number only.

Q: Report IC50 on Tyrosine-protein kinase Lck (Homo sapiens, UniProt P06239) for this entry: Nc1ncnc2c1c(-c1ccc(Oc3ccccc3)cc1)cn2C1CCCC1
Sequence (P06239 whole entry): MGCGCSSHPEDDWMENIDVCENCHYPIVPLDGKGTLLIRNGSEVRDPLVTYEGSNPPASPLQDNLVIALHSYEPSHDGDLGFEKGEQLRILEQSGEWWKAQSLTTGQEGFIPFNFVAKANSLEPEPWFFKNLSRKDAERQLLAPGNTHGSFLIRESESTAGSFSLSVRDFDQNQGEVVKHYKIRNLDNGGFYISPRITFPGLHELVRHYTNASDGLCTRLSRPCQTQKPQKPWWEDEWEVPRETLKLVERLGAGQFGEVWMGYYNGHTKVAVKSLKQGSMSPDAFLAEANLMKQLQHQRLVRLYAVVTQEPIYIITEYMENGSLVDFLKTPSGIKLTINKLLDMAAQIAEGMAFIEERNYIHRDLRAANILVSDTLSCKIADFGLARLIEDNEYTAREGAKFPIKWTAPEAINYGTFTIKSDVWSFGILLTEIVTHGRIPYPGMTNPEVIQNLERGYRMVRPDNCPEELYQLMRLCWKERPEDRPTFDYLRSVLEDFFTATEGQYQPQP
A: 100

Q: Provide measured IC50 on Tyrosine-protein kinase Lck (Homo sapiens, UniProt P06239) for CN1CCN([C@H]2CC[C@@H](n3cc(-c4ccc(Oc5ccccc5)cc4)c4c(N)ncnc43)CC2)CC1 please.
A: 15

---

# system-under-test: Angiopoietin-1 receptor (Homo sapiens)
# Sequence (Q02763 whole entry): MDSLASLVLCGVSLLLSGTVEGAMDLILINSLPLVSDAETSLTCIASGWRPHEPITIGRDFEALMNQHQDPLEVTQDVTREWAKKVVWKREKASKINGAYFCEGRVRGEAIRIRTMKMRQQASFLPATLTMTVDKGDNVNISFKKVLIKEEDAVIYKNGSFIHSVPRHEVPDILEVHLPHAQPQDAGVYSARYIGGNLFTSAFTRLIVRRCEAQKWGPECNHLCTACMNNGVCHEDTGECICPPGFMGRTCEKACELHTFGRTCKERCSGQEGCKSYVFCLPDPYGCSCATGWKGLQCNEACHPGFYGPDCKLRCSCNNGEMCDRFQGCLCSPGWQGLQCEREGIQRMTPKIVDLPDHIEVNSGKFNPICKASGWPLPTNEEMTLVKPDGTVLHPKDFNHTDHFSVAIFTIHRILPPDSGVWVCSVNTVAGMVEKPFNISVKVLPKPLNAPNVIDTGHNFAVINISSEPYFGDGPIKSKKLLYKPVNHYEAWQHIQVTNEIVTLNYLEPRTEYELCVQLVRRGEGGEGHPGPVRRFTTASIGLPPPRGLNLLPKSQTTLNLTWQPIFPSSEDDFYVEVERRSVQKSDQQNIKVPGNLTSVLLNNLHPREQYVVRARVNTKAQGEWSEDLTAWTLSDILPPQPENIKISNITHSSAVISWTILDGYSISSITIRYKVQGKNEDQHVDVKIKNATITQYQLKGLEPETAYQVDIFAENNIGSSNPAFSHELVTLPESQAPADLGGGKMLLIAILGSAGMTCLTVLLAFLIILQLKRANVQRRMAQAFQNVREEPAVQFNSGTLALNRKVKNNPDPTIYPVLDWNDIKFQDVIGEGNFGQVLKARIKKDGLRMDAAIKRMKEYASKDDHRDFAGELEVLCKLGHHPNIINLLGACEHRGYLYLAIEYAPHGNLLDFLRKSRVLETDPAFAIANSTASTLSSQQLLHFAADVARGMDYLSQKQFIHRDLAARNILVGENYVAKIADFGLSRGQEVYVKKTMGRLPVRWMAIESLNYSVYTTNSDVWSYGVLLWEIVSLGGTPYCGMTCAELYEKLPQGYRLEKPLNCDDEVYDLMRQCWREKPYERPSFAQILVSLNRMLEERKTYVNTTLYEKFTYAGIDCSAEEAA
# measurement-description: Inhibition of TIE-2 kinase.
parameter: pIC50
Reminder that pIC50 is minus the log10 of a molar concentration.

Q: Give pIC50 for the following molecule: CN1CCN([C@H]2CC[C@H](n3cc(-c4ccc(Oc5ccccc5)cc4)c4c(N)ncnc43)CC2)CC1
A: 5.23
